Source listed as patent US20190031754A1.

experimental.target: T1, anti-human Fc (Jackson ImmunoResearch, 109-006-008)
T1 construct: Coated on a control plate to capture the chimeric IgG1 antibodies through their human Fc; also called IgG
procedure.text: ELISA, IgG titrated on coated anti-human Fc; fit printed as IC50
Answer each item with its documented IC50.
Kindly answer with a numeric value in ng/mL, unit omitted.

input: Dear colleague, please send me the reported IC50 for ERR2-308 (mAb037) (antibody, human IgG1, V domains shown, Full-length chimeric rabbit/human IgG1, human IgH-gamma1 and IgL-kappa constant regions; C-terminal tags HC: LPETG-Strep, LC: G5SLPETG-Strep) VH: QEQLEESGGRLVTPGTPLTLTCAVSGFSLSNYAMGWVRQAPGEGLEYIGWISAGGGAYYASWVNGRFTISKTSSTVDLKMTSLTAADTATYFCARGASNGCDLWGPGTLVTVSS VL: DPMLTQTPSSVSAVVGGTVTIKCQASQSITSWLSWYQQKPGQPPKLLIYGASHLASGVPSRFKGSGYGTEFTLTISGIQREDAATYYCLGGYSNSDIVFGGGTELEIL when you can.
output: 16.7

input: Please report the measured IC50 for XBR2-401 (mAb003) (antibody, human IgG1, V domains shown, Full-length chimeric rabbit/human IgG1 (kappa) with C-terminal tags HC: LPETG-Strep, LC: G5SLPETG-Strep) VH: QSVKESEGGLFKPTDTLTLTCTVSGFSLSSYGVTWVRQAPGSGLEWIGYINTAGNTYYASWAKSRSTITRNTNENTVTLKMTSLTAADTATYFCARDWTSLNIWGPGTLVTVSS VL: DPMLTQTPSSTSTAVGDTVTIKCQASQSISSDLSWYQQKPGQRPKLLIYQASTLASGVPSRFKGSGYGTEYTLTISGVQREDAAIYYCLGGYADASYRTAFGGGTKLEIK
output: 6.8

input: Tell me IC50 reported for ERR2-316 (mAb005) (antibody, human IgG1, V domains shown, Full-length chimeric rabbit/human IgG1, human IgH-gamma1 and IgL-kappa constant regions; C-terminal tags HC: LPETG-Strep, LC: G5SLPETG-Strep; also called mAb0005) VH: QKQLVESGGRLVTPGGSLTLTCTVSGFSLSKYGVSWVRQAPGSGLEYIGTIGGSGTSYYASWAKSRSTITRNTNLNTVTLKMTSLTAADTATYFCARYFGWNTGFDIWGPGTLVTISS VL: DPVMTQTPSSVSEPVGGTVTIKCQASQSISNALAWYQQKPGQPPKRLIYKASTPASGVPSRFKGSRSGTEYTLTISGVQREDAATYYCLGFSVVSNDGWAFGAGTNVEIK
output: 11.2

input: For the binder ERR2-317 (mAb006) (antibody, human IgG1, V domains shown, Full-length chimeric rabbit/human IgG1, human IgH-gamma1 and IgL-kappa constant regions; C-terminal tags HC: LPETG-Strep, LC: G5SLPETG-Strep) VH: QSLEESGGRLVTPGTPLTLTCTASGFSLSSYDMIWVRQAPGKGLEYIGIINAGGNTYYASWAKGRFTISRTSTTVDLKMTSPTTEDTATYFCARGSSWTGDIWGPGTLVTVSS VL: DPVLTQTPSSTSAAVGGTVTIKCQASQSISSYLSWYQQKPGQPPKQLIYAASTLASGVPSRFKGSGSGTEYTLTISGVQREDAATYYCLGGYASASYQTAFGGGTKVEIK , give its measured IC50 value.
output: 8.4
